FYI, the data here is from patent EP0252422A2.

- Tested on: anesthetized dog
- experiment: anesthetized dog, cardiac contractility and cardiac output
- Assay type: in vivo
- measurement_conditions: Dosage 30 µg/kg i.v.
Provide the recorded dp/dtmax Increasing rate (%) for the entries that follow.
The response must be a number in % with no trailing unit.

dp/dtmax Increasing rate (%) in this record for COc1cc(C2=NNC(=O)CC2)ccc1OCC(=O)N1CCN(Cc2ccc(OC)c(OC)c2OC)CC1 : 12.9

dp/dtmax Increasing rate (%) in this record for COc1ccc(CN2CCN(C(=O)COc3ccc(C4=NNC(=O)CC4)cc3)CC2)c(OC)c1OC : 12.2

dp/dtmax Increasing rate (%) in this record for COc1ccc(CN2CCN(C(=O)COc3ccc(C4=NNC(=O)CC4)cc3)CC2)cc1 : 18.0

dp/dtmax Increasing rate (%) in this record for COc1ccc(N2CCN(C(=O)C(C)Oc3ccc(C4=NNC(=O)CC4)cc3OC)CC2)cc1 (stereo not shown) : 9.9
